# System: P388
# assay_notes: Cytotoxicity against mouse P388 cell
# Format: functional, cell-based
# condition_notes: Mus musculus, P388
readout_type: IC50 (nM)
// return numeric value only (unit: nM, not printed)

{"entry_smiles": "COc1ccc(C[C@H]2C(=S)N[C@@H](C)C(=O)N(C)[C@H]3Cc4ccc(cc4)Oc4cc(ccc4OC)C[C@@H](C(=O)N[C@H](C)C(=S)N[C@@H](C)C(=O)N2C)N(C)C3=O)cc1", "measured_value": 5.5}
{"entry_smiles": "COc1ccc(C[C@H]2C(=O)N[C@@H](C)C(=O)N(C)[C@H]3Cc4ccc(cc4)Oc4cc(ccc4OC)C[C@@H](C(=O)N[C@H](C)C(=O)N4CCC[C@H]4C(=O)N2C)N(C)C3=O)cc1", "measured_value": 100}
{"entry_smiles": "COC(=O)C[C@@H]1NC(=O)[C@@H](C)NC(=O)[C@@H]2Cc3ccc(OC)c(c3)Oc3ccc(cc3)C[C@@H](C(=O)N2C)N(C)C(=O)[C@H](C)NC(=O)[C@H](Cc2ccc(OC)cc2)N(C)C1=O", "measured_value": 41.7}
{"entry_smiles": "COC(=O)CC[C@@H]1NC(=O)[C@@H](C)NC(=O)[C@@H]2Cc3ccc(OC)c(c3)Oc3ccc(cc3)C[C@@H](C(=O)N2C)N(C)C(=O)[C@H](C)NC(=O)[C@H](Cc2ccc(OC)cc2)N(C)C1=O", "measured_value": 58.9}
{"entry_smiles": "CCC[C@@H]1NC(=O)[C@@H](C)NC(=O)[C@@H]2Cc3ccc(OC)c(c3)Oc3ccc(cc3)C[C@@H](C(=O)N2C)N(C)C(=O)[C@H](C)NC(=O)[C@H](Cc2ccc(OC)cc2)N(C)C1=O", "measured_value": 13.8}

Please look at this molecule and report its IC50: COc1ccc(C[C@H]2C(=O)N[C@@H](C)C(=O)N(C)[C@H]3Cc4ccc(cc4)Oc4cc(ccc4OC)C[C@@H](C(=O)N[C@H](C)C(=O)N4CCCC[C@H]4C(=O)N2C)N(C)C3=O)cc1
97.7

Please look at this molecule and report its IC50: COc1ccc(C[C@H]2C(=O)N[C@@H](C)C(=O)N(C)[C@H]3Cc4ccc(cc4)Oc4cc(ccc4OC)C[C@@H](C(=O)N[C@H](C)C(=O)N[C@@H](CCCN=[N+]=[N-])C(=O)N2C)N(C)C3=O)cc1
35.5

====

Below, each entry is listed with its recorded log10 of IC50.
# Tested on: P388
# assay_notes: Cytotoxicity against mouse P388 cell
# Type: functional, cell-based
# condition_notes: Mus musculus, P388
In our notation, the value equals log10 of IC50 in nM.

For orientation, consider the following solved cases.
{"compound": "COc1ccc(C[C@H]2C(=O)N[C@@H](C)C(=O)N(C)[C@H]3Cc4ccc(cc4)Oc4cc(ccc4OC)C[C@@H](C(=O)N[C@H](C)C(=O)NC4(SCCS4)C(=O)N2C)N(C)C3=O)cc1", "log10 of IC50": 2.80}
{"compound": "COc1ccc(C[C@H]2C(=O)N[C@@H](C)C(=O)N(C)[C@H]3Cc4ccc(cc4)Oc4cc(ccc4OC)C[C@@H](C(=O)N[C@H](C)C(=O)N[C@@H](CCCO)C(=O)N2C)N(C)C3=O)cc1", "log10 of IC50": 2.24}

Please tell me the measured log10 of IC50 for COc1ccc(C[C@H]2C(=O)N[C@@H](C)C(=O)N(C)[C@H]3Cc4ccc(cc4)Oc4cc(ccc4O)C[C@@H](C(=O)N[C@H](C)C(=O)N[C@@H](C)C(=O)N2C)N(C)C3=O)cc1 [DEOXYBOUVARDIN] ; system: P388.
0.55

Please tell me the measured log10 of IC50 for C[C@@H]1NC(=O)[C@@H](C)NC(=O)[C@@H]2Cc3ccc(O)c(c3)Oc3ccc(cc3)C[C@@H](C(=O)N2C)N(C)C(=O)[C@H](C)NC(=O)[C@H](Cc2ccccc2)N(C)C1=O ; system: P388.
1.63

Please tell me the measured log10 of IC50 for C=C[C@@H]1NC(=O)[C@@H](C)NC(=O)[C@@H]2Cc3ccc(OC)c(c3)Oc3ccc(cc3)C[C@@H](C(=O)N2C)N(C)C(=O)[C@H](C)NC(=O)[C@H](Cc2ccc(OC)cc2)N(C)C1=O ; system: P388.
1.41

====

# Test system: P388
# assay_notes: Cytotoxicity against mouse P388 cell
# Format: functional, cell-based
# condition_notes: Mus musculus, P388
IC50 strictly under 60 nM means 1.0; at 60 nM or over means 0.0.

Some solved entries appear below for comparison.
{"entry_smiles": "C=CC[C@@H]1NC(=O)[C@@H](C)NC(=O)[C@@H]2Cc3ccc(OC)c(c3)Oc3ccc(cc3)C[C@@H](C(=O)N2C)N(C)C(=O)[C@H](C)NC(=O)[C@H](Cc2ccc(OC)cc2)N(C)C1=O", "group": 1.0}
{"entry_smiles": "COc1ccc(C[C@H]2C(=O)N[C@@H](C)C(=O)N(C)[C@H]3Cc4ccc(cc4)Oc4cc(ccc4OC)C[C@@H](C(=O)N[C@H](C)C(=O)N[C@@H](CO)C(=O)N2C)N(C)C3=O)cc1", "group": 1.0}
{"entry_smiles": "COc1ccc(C[C@H]2C(=O)N[C@@H](C)C(=O)N(C)[C@H]3Cc4ccc(c(O)c4)Oc4cc(ccc4O)C[C@@H](C(=O)N[C@H](C)C(=O)N[C@@H](C)C(=O)N2C)N(C)C3=O)cc1", "group": 0.0}

Okay, now this compound:
Is it true that IC50 reported for CCCc1ccc(C[C@H]2C(=O)N[C@@H](C)C(=O)N(C)[C@H]3Cc4ccc(cc4)Oc4cc(ccc4OC)C[C@@H](C(=O)N[C@H](C)C(=O)N[C@@H](C)C(=O)N2C)N(C)C3=O)cc1 is less than 60 nM?
1.0

====

# Test system: P388
# assay_notes: Cytotoxicity against mouse P388 cell
# Type: functional, cell-based
# condition_notes: Mus musculus, P388
pIC50: −log10 of the molar value.
# cutoff 8 applies to pIC50; >= gives yes, < gives no

Some solved entries appear below for comparison.
{"entry_smiles": "COc1ccc(C[C@H]2C(=S)N[C@@H](C)C(=O)N(C)[C@H]3Cc4ccc(cc4)Oc4cc(ccc4OC)C[C@@H](C(=O)N[C@H](C)C(=O)N[C@@H](C)C(=O)N2C)N(C)C3=O)cc1", "group": "yes"}
{"entry_smiles": "COc1ccc(C[C@H]2C(=O)N[C@@H](C)C(=O)N(C)[C@H]3Cc4ccc(cc4)Oc4cc(ccc4OC)C[C@@H](C(=O)N[C@H](C)C(=O)N[C@@H](CC=O)C(=O)N2C)N(C)C3=O)cc1", "group": "no"}
{"entry_smiles": "COc1ccc(C[C@H]2C(=O)N[C@@H](C)C(=O)N(C)[C@H]3Cc4ccc(cc4)Oc4cc(ccc4OC)C[C@@H](C(=O)N[C@H](C)C(=O)N[C@@H](CCSC)C(=O)N2C)N(C)C3=O)cc1", "group": "no"}
{"entry_smiles": "COC(=O)C[C@@H]1NC(=O)[C@@H](C)NC(=O)[C@@H]2Cc3ccc(OC)c(c3)Oc3ccc(cc3)C[C@@H](C(=O)N2C)N(C)C(=O)[C@H](C)NC(=S)[C@H](Cc2ccc(OC)cc2)N(C)C1=O", "group": "yes"}
{"entry_smiles": "C[C@@H]1NC(=O)[C@@H](C)NC(=O)[C@@H]2Cc3cccc(c3)Oc3ccc(cc3)C[C@@H](C(=O)N2C)N(C)C(=O)[C@H](C)NC(=O)[C@H](Cc2ccccc2)N(C)C1=O", "group": "no"}

Answer whether pIC50 of COc1ccc(C[C@H]2C(=O)N[C@@H](C)C(=O)N(C)[C@H]3Cc4ccc(cc4)Oc4cc(ccc4OC)C[C@@H](C(=O)N[C@H](C)C(=O)N[C@@H](C)C(=O)N2C)N(C)C3=O)cc1O is greater than or equal to 8.
no

Answer whether pIC50 of C/C=C/c1ccc(C[C@H]2C(=O)N[C@@H](C)C(=O)N(C)[C@H]3Cc4ccc(cc4)Oc4cc(ccc4OC)C[C@@H](C(=O)N[C@H](C)C(=O)N[C@@H](C)C(=O)N2C)N(C)C3=O)cc1 is greater than or equal to 8.
yes

Answer whether pIC50 of COc1ccc(C[C@H]2C(=O)N[C@@H](C)C(=O)N(C)[C@H]3Cc4ccc(cc4)Oc4cc(ccc4OC)C[C@@H](C(=O)N[C@H](C)C(=O)N[C@@H](CS)C(=O)N2C)N(C)C3=O)cc1 is greater than or equal to 8.
no

====

# Test system: P388
# assay_notes: Cytotoxicity against mouse P388 cell
# Assay type: functional, cell-based
# condition_notes: Mus musculus, P388
IC50 strictly under 1000 nM means true; at 1000 nM or over means false.

Some solved entries appear below for comparison.
{"compound": "COc1ccc(C[C@H]2C(=O)N[C@@H](C)C(=O)N(C)[C@H]3Cc4ccc(cc4)Oc4cc(ccc4OC)C[C@@H](C(=O)N[C@H](C)C(=O)N[C@@H](CC(=O)O)C(=O)N2C)N(C)C3=O)cc1", "tested_system": "P388", "group": "false"}
{"compound": "COc1ccc(C[C@H]2C(=O)N[C@@H](C)C(=O)N(C)[C@H]3Cc4ccc(cc4)Oc4cc(ccc4OC)C[C@@H](C(=O)N[C@H](C)C(=O)N4C(=O)CC[C@H]4C(=O)N2C)N(C)C3=O)cc1", "tested_system": "P388", "group": "true"}
{"compound": "COc1ccc2cc1Oc1ccc(cc1)C[C@H]1C(=O)N(C)[C@@H](C2)C(=O)N[C@H](C)C(=O)N[C@@H](C)C(=O)N(C)[C@@H](Cc2ccccc2)C(=O)N[C@@H](C)C(=O)N1C", "tested_system": "P388", "group": "true"}
{"compound": "COc1ccc(C[C@H]2C(=O)N[C@@H](C)C(=O)N(C)[C@H]3Cc4ccc(cc4)Oc4cc(ccc4OC)C[C@@H](C(=S)N[C@H](C)C(=O)N[C@@H](C)C(=O)N2C)N(C)C3=O)cc1", "tested_system": "P388", "group": "true"}

Okay, now this compound:
Is it true that IC50 reported for COc1ccc(C[C@H]2C(=O)N[C@@H](C)C(=O)N(C)[C@H]3Cc4ccc(c(O)c4)Oc4cc(ccc4OC)C[C@@H](C(=O)N[C@H](C)C(=O)N[C@@H](C)C(=O)N2C)N(C)C3=O)cc1 (stereo in doubt; 39) is less than 1000 nM?
false

Cited source: ChEMBL document CHEMBL1153577
